Reported values of cytotoxicity at 70.5 h for individual entries
# Procedure Details: Human HepG2 cell viability assay in 384 well format
# Format: toxicity, cell-based
# Design: dose 125 nL, time 70.5 hour; concentration not given beside the values
# Condition: HepG2 cells, read-out: Inhibition
Assay Readout: cytotoxicity at 70.5 h (%)

> print(dat)
                                    compound  unit.label  measured.result
 1       CC(=O)c1ccc(CN2CC(Oc3ccccc3C)C2)cc1           %            -1.63
 2  Cc1nnc(N2CC[C@H]3C[C@H](C(=O)N4CCOCC4)O[C@H]3C2)s1           %            -2.02
 3          CCNC(=O)c1cc(OC)c2cc(F)cc(C)c2n1           %            -12.9
 4  O=C(c1ccc(Cl)cc1)N1CC2(CCNC2)OCc2ccccc21 (configuration not stated)           %            -5.43
 5  OC(CNc1ccc(Cl)cn1)CN1CCOCC1 (configuration not stated)           %             2.86
 6  Cc1cc(CNC(=O)N2CCc3ccccc3C2CO)c(C)o1 (configuration not stated)           %            -5.72
 7         COCc1cc(N(C)CCc2c(C)n[nH]c2C)ncn1           %             5.69
 8  O=C(CCc1ccccc1)N1CCCCC1C1OCCO1 (configuration not stated)           %            -3.98
 9  Cc1cccc(N2CCC3(CCCN(C(=O)c4cccnc4)C3)C2)n1 (configuration not stated)           %             18.7
10            CC(=O)c1ccccc1C(=O)NCC1(CO)CC1           %             4.58
11  O=C(c1ccnnc1)N1CCc2ncnc(C3CCOC3)c2CC1 (configuration not stated)           %            -9.59
12  CCc1noc(CN(C)C2CCN(c3sccc3C#N)C2=O)n1 (configuration not stated)           %            -2.79
